- Tested on: Saccharomyces cerevisiae
- assay_text: protein stability index of tFT-peptide fusion (C-terminal peptide) (PSI (0-1 scale)); higher = more stable (slower turnover)
- conditions: genetic background: wild type; temperature: 30 C
Please enter 1 where protein stability index is greater than or equal to 0.7, and -1 where it is lower.

Examples with answers:
INSERT INTO results (residue_string, class_label) VALUES
  ('RDGKRHSSQWRG', -1),
  ('YAERNKKTLKDT', -1),
  ('ILDSPMWQPVSM', 1),
  ('RVVGGGGEAWRE', 1),
  ('GLQFYPFLSVVR', -1);

Query :: Is protein stability index for YSMLGKLVRLVT at or above 0.7?
Result :: -1

Query :: Is protein stability index for VSMSACSPGGMS at or above 0.7?
Result :: -1

Query :: Is protein stability index for PGVRPPSLVPPL at or above 0.7?
Result :: -1

Query :: Is protein stability index for SKNEIKNYNTKI at or above 0.7?
Result :: -1

###

- Test system: Saccharomyces cerevisiae
- assay_text: protein stability index of tFT-peptide fusion (C-terminal peptide) (PSI (0-1 scale)); higher = more stable (slower turnover)
- conditions: genetic background: das1 deletion; temperature: 30 C
readout: protein stability index
Answers are plain numbers.

Worked examples, 5 sequences total:
INSERT INTO assay_data (residue_string, observed_result) VALUES
  ('VYSIESRVLGHN [OAC1 C-terminal 12 aa]', 0.679),
  ('MFNQGKVEEMDF [SML1 C-terminal 12 aa]', 0.719),
  ('DGVENTPVESQQ [NMD3 C-terminal 12 aa]', 0.682),
  ('EDKDSESFSEVC [YCG1 C-terminal 12 aa]', 0.702),
  ('DEDLWEEQEVCP [YGR017W C-terminal 12 aa]', 0.702);

Hey, quick one: what's protein stability index for each of these?
1. LRKKQVKKKVKS [SLX8 C-terminal 12 aa]
2. AIDTLLKMSSSD [SRL3 C-terminal 12 aa]
3. NENKKANGNNCC [YPT31 C-terminal 12 aa]
4. TVQSKLGDHGFN [PEP7 C-terminal 12 aa]
5. QLVKLQLVELKL [LAM5 C-terminal 12 aa]
6. IKSVHVDLSLDK [ALD3 C-terminal 12 aa]
7. DNFINSVKLNFR [SEC10 C-terminal 12 aa]

Result ::
1: 0.688; 2: 0.703; 3: 0.705; 4: 0.679; 5: 0.611; 6: 0.717; 7: 0.694

###

- Tested on: Saccharomyces cerevisiae
- assay_text: protein stability index of tFT-peptide fusion (C-terminal peptide) (PSI (0-1 scale)); higher = more stable (slower turnover)
- conditions: genetic background: wild type; temperature: 30 C
Please enter Condition met where protein stability index is greater than or equal to 0.6, and Condition not met where it is lower.

Examples with answers:
INSERT INTO assay_data (residue_string, class_label) VALUES
  ('AGGDDGAPGTQS', 'Condition met'),
  ('PCSLPLVLSFPH', 'Condition met'),
  ('LLPVFFPCFPLP', 'Condition met'),
  ('MMMRKAPTARVS', 'Condition met');

Query :: Is protein stability index for LPIKRLPLPTVP at or above 0.6?
Result :: Condition met

Query :: Is protein stability index for QSRHCHPTPKRL at or above 0.6?
Result :: Condition met

Query :: Is protein stability index for RFFVRRVRVAVL at or above 0.6?
Result :: Condition not met
